- Tested on: primary astrocytes
- assayOverview: Extracellular lactate quantification
- Assay type: cell-based, mouse
- cond: Appendix II, CDC54K library
Below, each entry is listed with its recorded Score Lact..

[
  {
    "molecule": "CCc1cc2c(NC3CCCC3)ncnc2s1",
    "Score Lact.": 0.66
  },
  {
    "molecule": "C1=Cc2ncnc(NCc3ccccc3CN3CCOCC3)c2C1",
    "Score Lact.": 0.79
  },
  {
    "molecule": "COc1ccc(NS(=O)(=O)c2ccc(NC(=O)C3CCCO3)cc2)cc1 (centres unmarked)",
    "Score Lact.": 0.53
  },
  {
    "molecule": "Cc1nc2ccccc2n1CCOc1ccc(Br)cc1",
    "Score Lact.": 0.64
  },
  {
    "molecule": "CCOc1ccc(CN(C)CC(=O)Nc2cccc(C)c2)cc1OC",
    "Score Lact.": 0.42
  }
]
